Entry source: PubChem BioAssay AID1963846

system: 454973-116-R2-J3-PDC complex spheroid viability; experiment: Anticancer human tumor 454973-116-R2-J3-PDC patient-derived pancreatic carcinoma cell line growth inhibition [POLQ]; conditions: second compound 0.0316 µM; first compound 1 µM; active = viability on the fitted dose curve at most 10% of control; inactive = the rest
Answer with one of the outcomes active, inactive

INSERT INTO assay_data (compound, class_label) VALUES
  ('CC1COCCN1c1cc(-c2ccnn2C)c2ccnc(-c3ccn[nH]3)c2n1 (stereo unspecified) + Nc1ccc(C#CCN(C(=O)Cc2ncc(C(F)(F)F)cc2C(F)(F)F)c2ccc(F)cc2)nn1', 'inactive'),
  ('O=c1[nH]cc(F)c(=O)[nH]1 + Nc1ccc(C#CCN(C(=O)Cc2ncc(C(F)(F)F)cc2C(F)(F)F)c2ccc(F)cc2)nn1', 'inactive'),
  ('COc1cccc(OCCCN)c1-c1cc(Nc2cnc(C#N)cn2)n[nH]1 + Nc1ccc(C#CCN(C(=O)Cc2ncc(C(F)(F)F)cc2C(F)(F)F)c2ccc(F)cc2)nn1', 'active'),
  ('Nc1ccn(C2OC(CO)C(O)C2(F)F)c(=O)n1 (stereo unspecified) + Nc1ccc(C#CCN(C(=O)Cc2ncc(C(F)(F)F)cc2C(F)(F)F)c2ccc(F)cc2)nn1', 'active'),
  ('CNCc1ccc(-c2[nH]c3cc(F)cc4c3c2CCNC4=O)cc1 + COC1C(OC(N)=O)C(O)C(Oc2ccc3c(O)c(NC(=O)c4ccc(O)c(CC=C(C)C)c4)c(=O)oc3c2C)OC1(C)C', 'inactive');

Shifting focus to the compound that follows.
(Q) Given CNCc1ccc(-c2[nH]c3cc(F)cc4c3c2CCNC4=O)cc1 + Cc1cccc(N(C)C(=O)C2C(O)CCN2c2nc(C)cc(C(F)(F)F)c2C#N)c1 , state the outcome it received in this test.
(A) inactive

----------
system: 454973-116-R2-J3-PDC complex spheroid viability; assay: Anticancer human tumor 454973-116-R2-J3-PDC cell line growth inhibition [POLQ]; settings: second compound 10 µM; first compound 3.16 µM; hits give low values;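 also: spheroids exposed to drugs for seven days before measurement; percent viability relative to DMSO vehicle control wells taken as 100%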
Endpoint label: viability, T/C (%)
Give the value, in units of %, as a plain number.

Some solved entries appear below for comparison.
INSERT INTO measurements (molecule, endpoint_label, display_unit, experimental_value) VALUES
  ('CCc1cc2c(N3CCc4c(cc(Cn5ccnc5)cc4-c4cn(C)nc4C(F)(F)F)C3=O)cc(C)nc2c(OC)n1 + Nc1ccc(C#CCN(C(=O)Cc2ncc(C(F)(F)F)cc2C(F)(F)F)c2ccc(F)cc2)nn1', 'viability, T/C', '%', 80.1),
  ('O=C(c1cc(Cc2n[nH]c(=O)c3ccccc23)ccc1F)N1CCN(C(=O)C2CC2)CC1 + Nc1ccc(C#CCN(C(=O)Cc2ncc(C(F)(F)F)cc2C(F)(F)F)c2ccc(F)cc2)nn1', 'viability, T/C', '%', 101),
  ('CC1COCCN1c1cc(C2(S(C)(=N)=O)CC2)nc(-c2ccnc3[nH]ccc23)n1 (centres undefined) + COC1C(OC(N)=O)C(O)C(Oc2ccc3c(O)c(NC(=O)c4ccc(O)c(CC=C(C)C)c4)c(=O)oc3c2C)OC1(C)C', 'viability, T/C', '%', 74),
  ('CC(C)n1c(=O)n(C)c2cnc3cc(F)c(-c4ccc(OCCCN5CCCCC5)nc4)cc3c21 + Nc1ccc(C#CCN(C(=O)Cc2ncc(C(F)(F)F)cc2C(F)(F)F)c2ccc(F)cc2)nn1', 'viability, T/C', '%', 104),
  ('CC1COCCN1c1cc(-c2ccnn2C)c2ccnc(-c3ccn[nH]3)c2n1 (centres undefined) + Nc1ccc(C#CCN(C(=O)Cc2ncc(C(F)(F)F)cc2C(F)(F)F)c2ccc(F)cc2)nn1', 'viability, T/C', '%', 10.2),
  ('C#Cc1c(F)ccc2cc(O)cc(-c3ncc4c(N5CC6CCC(C5)N6)nc(OCC56CCCN5CC(F)C6)nc4c3F)c12 (centres undefined) + Cc1cccc(N(C)C(=O)C2C(O)CCN2c2nc(C)cc(C(F)(F)F)c2C#N)c1', 'viability, T/C', '%', 29.1);

(Q) Tell me the measured viability, T/C of C=CC(=O)N1CCN(c2nc(=O)n(-c3c(C)ccnc3C(C)C)c3nc(-c4c(O)cccc4F)c(F)cc23)C(C)C1 (centres undefined) + Nc1ccc(C#CCN(C(=O)Cc2ncc(C(F)(F)F)cc2C(F)(F)F)c2ccc(F)cc2)nn1 , please.
(A) 137

(Q) And what about the molecule COc1cc(C2c3cc4c(cc3C(OC3OC5COC(C)OC5C(O)C3O)C3COC(=O)C23)OCO4)cc(OC)c1O (centres undefined) + COC1C(OC(N)=O)C(O)C(Oc2ccc3c(O)c(NC(=O)c4ccc(O)c(CC=C(C)C)c4)c(=O)oc3c2C)OC1(C)C ?
(A) 21.4

(Q) Then COc1cc2cc(C(=O)CCC(=O)O)sc2cc1OC + Nc1ccc(C#CCN(C(=O)Cc2ncc(C(F)(F)F)cc2C(F)(F)F)c2ccc(F)cc2)nn1 ?
(A) 119

----------
Examples of compounds with documented viability, T/C follow.
system: 454973-116-R2-J3-PDC complex spheroid viability; test: Anticancer human tumor 454973-116-R2-J3-PDC cell line growth inhibition [POLQ]; conditions: second compound 0.0316 µM; first compound 1 µM; hits give low values;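 also: spheroids exposed to drugs for seven days before measurement; percent viability relative to DMSO vehicle control wells taken as 100%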
Enter your answer as a number in %; do not include the unit.

INSERT INTO measurements (compound, endpoint_label, display_unit, experimental_value) VALUES
  ('COc1ccc([C@@H](O)c2cc(-c3ncnc4cc(N5CCOCC5)ccc34)c(F)cc2Cl)nn1 + COC1C(OC(N)=O)C(O)C(Oc2ccc3c(O)c(NC(=O)c4ccc(O)c(CC=C(C)C)c4)c(=O)oc3c2C)OC1(C)C', 'viability, T/C', '%', 94.4),
  ('COc1cccc2c1C(=O)c1c(O)c3c(c(O)c1C2=O)CC(O)(C(=O)CO)CC3OC1CC(N)C(O)C(C)O1 (stereo not given) + COC1C(OC(N)=O)C(O)C(Oc2ccc3c(O)c(NC(=O)c4ccc(O)c(CC=C(C)C)c4)c(=O)oc3c2C)OC1(C)C', 'viability, T/C', '%', 8.86);

(Q) Name the recorded viability, T/C for CC1COCCN1c1cc(-c2ccnn2C)c2ccnc(-c3ccn[nH]3)c2n1 (stereo not given) + COC1C(OC(N)=O)C(O)C(Oc2ccc3c(O)c(NC(=O)c4ccc(O)c(CC=C(C)C)c4)c(=O)oc3c2C)OC1(C)C .
(A) 19.2

(Q) // query: CCCS(=O)(=O)Nc1ccc(F)c(C(=O)c2c[nH]c3ncc(-c4ccc(Cl)cc4)cc23)c1F + COC1C(OC(N)=O)C(O)C(Oc2ccc3c(O)c(NC(=O)c4ccc(O)c(CC=C(C)C)c4)c(=O)oc3c2C)OC1(C)C
(A) 114

(Q) What would you report for C=CC(=O)N1CCN(c2nc(=O)n(-c3c(C)ccnc3C(C)C)c3nc(-c4c(O)cccc4F)c(F)cc23)C(C)C1 (stereo not given) + COC1C(OC(N)=O)C(O)C(Oc2ccc3c(O)c(NC(=O)c4ccc(O)c(CC=C(C)C)c4)c(=O)oc3c2C)OC1(C)C ?
(A) 111

----------
Parameter: viability, T/C. Scope: all listed entries.
test system: 454973-116-R2-J3-PDC complex spheroid viability; assay: Anticancer human tumor 454973-116-R2-J3-PDC cell line growth inhibition [POLQ]; details: second compound 3.16 µM; first compound 0.0316 µM; hits give low values;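 also: spheroids exposed to drugs for seven days before measurement; percent viability relative to DMSO vehicle control wells taken as 100%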
Respond numerically; units are % and should not be typed.

Some solved cases for reference:
INSERT INTO measurements (compound, experimental_value) VALUES
  ('COc1ccc([C@@H](O)c2cc(-c3ncnc4cc(N5CCOCC5)ccc34)c(F)cc2Cl)nn1 + Nc1ccc(C#CCN(C(=O)Cc2ncc(C(F)(F)F)cc2C(F)(F)F)c2ccc(F)cc2)nn1', 102),
  ('O=C(Nc1ccc(O)c(NS(=O)(=O)c2ccc(F)cc2)c1)c1ccc(-c2ccccc2)cc1 + Nc1ccc(C#CCN(C(=O)Cc2ncc(C(F)(F)F)cc2C(F)(F)F)c2ccc(F)cc2)nn1', 107),
  ('C#Cc1c(F)ccc2cc(O)cc(-c3ncc4c(N5CC6CCC(C5)N6)nc(OCC56CCCN5CC(F)C6)nc4c3F)c12 (stereo not given) + Nc1ccc(C#CCN(C(=O)Cc2ncc(C(F)(F)F)cc2C(F)(F)F)c2ccc(F)cc2)nn1', 43.8),
  ('CNCc1ccc(-c2[nH]c3cc(F)cc4c3c2CCNC4=O)cc1 + Cc1cccc(N(C)C(=O)C2C(O)CCN2c2nc(C)cc(C(F)(F)F)c2C#N)c1', 109);

Here's the next entry for you.
(Q) Which viability, T/C is listed for Cn1ncnc1[C@H]1c2n[nH]c(=O)c3cc(F)cc(c23)N[C@@H]1c1ccc(F)cc1 + COC1C(OC(N)=O)C(O)C(Oc2ccc3c(O)c(NC(=O)c4ccc(O)c(CC=C(C)C)c4)c(=O)oc3c2C)OC1(C)C ?
(A) 104
